# Tested on: A498 renal
# Run description: NCI-60 one-dose screen, 48 h (100 = growth as untreated, 0 = no growth, -100 = all killed)
# Assay setup: 10 µM unless noted
This is part of a sample that, as a whole, favours compounds with a hit. Of some 83,000 tested, about 20% had one in any assay. Calls of active or inactive are those of the source. The calls were made as follows: active = growth percent below 10; inactive = the rest.
Each entry below lists one item and its recorded growth value.
Parameter: growth

Cc1cc(C)c2nc3nc(C)cc(C)c3c(N)c2c1    47% (inactive)
O=C(Nc1ccccc1Cl)c1ccc(NC2=C(Cl)C(=O)N(C3CCCCC3)C2=O)cc1    123% [30 µM] (inactive)
COc1ccc(/C=C/c2nc3ccccc3nc2/C=C/c2ccc(OC)cc2)cc1    83.9% (inactive)
CCN(CC)c1ccc(-c2cc(-c3cc(OC)c(OC)c(OC)c3)nc(N3CCOCC3)c2C#N)cc1    34.5% (inactive)
O=C1c2c(O)cc(O)cc2-c2c(-c3ccc(O)cc3)oc3cc(O)cc1c23    62.5% (inactive)
Cc1cc(C)nc(SC2=C(Nc3ccc(C)c(Cl)c3)C(=O)N(Cc3ccccc3)C2=O)n1    69.5% [30 µM] (inactive)
Oc1ccccc1-c1nnc(CNc2ccc(Cl)cc2)o1    77.9% (inactive)
CCCn1c(=O)[nH]c(N)c([C@H]2c3ccccc3Oc3[nH]c(=O)n(CCC)c(=O)c32)c1=O    92.9% (inactive)
CCC#CC[C@H](O)C/C=C1/C(=O)C=C[C@@H]1C/C=C\CCCC(=O)OC    95.7% (inactive)
O=c1cc(CSc2nnc(SCc3cc(=O)oc4c3ccc3ccccc34)o2)c2ccc3ccccc3c2o1    98.9% (inactive)

---

# System: UACC-257 melanoma
# Run description: NCI-60 one-dose screen, 48 h
# Assay setup: 10 µM unless noted
The panel holds about 83,000 compounds, 20% with a hit somewhere; the sample as a whole holds those more often. Activity calls are given as the source filed them. Rule for the calls: active = growth percent below 10; inactive = the rest.
Outcomes: active, inactive

C#Cc1cccc(NC(=O)c2ccccc2NC(=O)C=C)c1    inactive
CCNC(=O)Oc1ccc(/C(=C(\C)c2ccc(Cl)cc2)c2ccc(OCCN3CCCCC3)cc2)cc1    active
Cc1nn(-c2cc(=O)[nH]c3ccc(Cl)cc23)c(N)c1C#N    inactive
COc1cc(/C=C/c2cc(O)c3cc(C(C)=O)c(=O)oc3c2)cc2c1O[C@]1(C)CC[C@@H](O)C(C)(C)[C@H]1C2    inactive
O=C(COc1cccc(/C=C2\CSc3ccccc3C2=O)c1)Nc1nccs1    inactive

---

# Tested on: DU-145 prostate
# Run description: NCI-60 one-dose screen, 48 h
# Assay setup: 10 µM unless noted
Compounds without any hit were thinned out: in the full panel of roughly 83,000, 20% have a hit. The source made the active and inactive calls. The calls were made as follows: active = growth percent below 10; inactive = the rest.
Outcomes: YES (active), NO (inactive)

Cc1cc(N2CCOCC2)nc(NCc2cc(Nc3ccnc4cc(Cl)ccc34)ccc2F)n1    YES
O=C1CC[C@H](c2ccc(O)c3c2C(=O)[C@@H]2O[C@@H]2C3=O)c2cccc(O)c21    NO
CCCc1cc(=O)n2c(C(=O)Nc3ccc(F)cc3)c(C(=O)Nc3ccc(F)cc3)sc2n1    NO
COc1ccc2[nH]cc(-c3noc(C(=O)c4cn(C)c5ccc(F)cc45)n3)c2c1    NO
COc1ccc(-c2nnc(SCC(=O)c3ccc(Cl)cc3)o2)cc1    NO
COc1nc2c(c(=O)n1C)CN(Cc1ccccc1)C=N2    NO
CCCCC(=O)OCC1OC(n2cnc3c(=S)nc[nH]c32)C(OC(=O)CCCC)C1OC(=O)CCCC (centres undefined)    NO
Cc1cc(Nc2ccc(C)c(Cl)c2)n2nc(C(F)(F)F)nc2n1    NO
COc1cc(/C=C/c2cc(O)c3cc(C(C)=O)c(=O)oc3c2)cc2c1O[C@]1(C)CC[C@@H](O)C(C)(C)[C@H]1C2    NO
